Data provenance: ChEMBL document CHEMBL4376827

Each item that follows carries a reported Activity.
# Organism: Homo sapiens
# run description: Activation of LPS-induced NF-kappaB activity in human THP1-Blue-NF-kappaB cells assessed as increase in SEAP reporter activity at 5 uM incubated for 20 hrs by quanti-blue SEAP assay relative to control
Form field: result (number plus unit)

# annotated cases, reported Activity shown
> print(dat)
                              sample.smiles  endpoint.value
1  CCOc1ccc(S(=O)(=O)Nc2cc(OC)c(N)cc2OC)cc1            101%
2  CCOc1ccc(S(=O)(=O)N(CCCNC(=O)CCCC[C@H]2SC[C@H]3NC(=O)N[C@H]32)c2cc(OC)c(Cl)cc2OC)cc1            195%
3  CCOc1ccc(S(=O)(=O)N(c2cc(OC)c(Cl)cc2OC)C(C)C)cc1             76%
4  CCNC(=O)CCCN(c1cc(OC)c(Cl)cc1OC)S(=O)(=O)c1ccc(OCC)cc1            206%
5  CCOc1ccc(S(=O)(=O)N(CCCNC(=O)c2ccc(-c3c4ccc(=[N+](C)C)cc-4oc4cc(N(C)C)ccc34)c(C(=O)O)c2)c2cc(OC)c(Cl)cc2OC)cc1            111%

Prompt: Please give the measured Activity for this compound: "COc1cc(NS(=O)(=O)c2ccc(C#N)cc2)c(OC)cc1Cl"
Completion: 97%

Prompt: Would you mind doing "COc1ccc(S(=O)(=O)Nc2cc(OC)c(Cl)cc2OC)cc1N" as well?
Completion: 158%
